- tested system: α1A-AR (Rattus norvegicus, UniProt P43140)
- Construct: expressed in transfected cells; host or cells: COS-1
- Sequence (P43140 whole entry): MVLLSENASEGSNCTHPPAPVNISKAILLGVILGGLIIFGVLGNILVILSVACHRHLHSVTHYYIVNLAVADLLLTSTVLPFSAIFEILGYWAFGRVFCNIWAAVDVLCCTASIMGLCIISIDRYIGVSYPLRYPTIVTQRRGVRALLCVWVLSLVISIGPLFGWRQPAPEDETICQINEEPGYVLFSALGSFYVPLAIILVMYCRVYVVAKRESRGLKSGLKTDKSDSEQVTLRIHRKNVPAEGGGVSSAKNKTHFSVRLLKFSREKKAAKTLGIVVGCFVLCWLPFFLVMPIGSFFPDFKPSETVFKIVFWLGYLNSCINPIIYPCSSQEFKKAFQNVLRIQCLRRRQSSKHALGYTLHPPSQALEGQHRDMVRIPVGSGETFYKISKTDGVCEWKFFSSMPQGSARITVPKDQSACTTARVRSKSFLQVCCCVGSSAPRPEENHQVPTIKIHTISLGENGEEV
- measurement description: [3H]Prazosin competition/saturation binding on COS-1 membranes expressing α1A-AR
- Parameters: species or system rodent
- recorded conditions: Ki α1A-AR, [3H]Prazosin 200 pM, COS-1 membranes; antilog of mean pKi, Cheng-Prusoff
- Protocol: COS-1 cells (American Type Culture Collection, Manassas, VA) were cultured in Dulbecco's modified Eagle's medium (DMEM) supplemented with 10% (v/v) heat inactivated fetal bovine serum (FBS), 100 µg ml^−1 penicillin and 100 µg ml^−1 streptomycin. […] Membranes were prepared as described previously. […] Protein concentration was determined using Bradford reagent (Sigma, St Louis, MO, USA). […]
pKi: −log10 of the molar value.

[
  {
    "compound": "Cc1ccc(C)c(N2CCN(CC(O)COC(C)(C)C)CC2)c1 (stereo not shown) [Compound 1]",
    "tested system": "α1A-AR (Rattus norvegicus, UniProt P43140)",
    "pKi": "> 5.70"
  }
]

Every entry's value here was drawn from paper PMC3091868.
